Every entry's value here was drawn from PubChem BioAssay (NCI).

- Tested on: HCC-2998 colon
- Test details: NCI-60 one-dose screen, 48 h (100 = growth as untreated, 0 = no growth, -100 = all killed)
- Particulars: 10 µM
About 83,000 compounds went through this panel and 20% of them were active in at least one assay; those are over-represented in the sample as a whole.
This section presents compounds with their documented growth values.
Measured attribute: growth (%)

>>> print(df.to_string())
                                    compound  measured_attribute  experimental_result
 0  CS(=O)(=O)c1nccc(-c2c(-c3cccc(OCc4ccccc4)c3)nc3sccn23)n1              growth                 32.4
 1  CCOC(=O)c1cc(C(=O)c2cc(OC)cc(OC)c2)n2ncc3ccccc3c12              growth                 69.1
 2  N#Cc1c(N)nc(-c2cc(F)cc(C(F)(F)F)c2)nc1-c1ccccc1F              growth                 75.6
 3  O=C(Nc1ccc(OS(=O)(=O)c2ccccc2)cc1)C1CCCCC1              growth                 92.4
 4  CCC(=O)OC1CCC2C3CCC(=O)OC3C(C)(CCC(=O)O)CC12C (stereo unspecified)              growth                 5.22
 5  COC(=O)c1c[nH]c2cc(OC(C)C)c(OC(C)C)cc2c1=O              growth                  104
 6  CCN(CC)c1ccc(/C=C2\SC(=O)C(Nc3nnc(-c4cccnc4SCc4ccccc4)o3)C2=O)cc1 (stereo unspecified)              growth                 4.15
 7                    O=S(=O)(O)c1ccc(Cl)cc1              growth                 98.9
 8  COc1cc2c(Nc3ccc(S(N)(=O)=O)cc3)ncnc2c(OC)c1OC              growth                 98.4
 9                       S=c1cnc2ccccc2[nH]1              growth                 67.6
10       COc1ccc(N=Nc2cc(OC)c(OC)c(OC)c2)cc1              growth                 81.4
